Assay: Apparent oral volume of distribution in Sprague-Dawley rat at 100 mg/kg administered as single dose by LC-MS/MS analysis
Format: ADME, organism-based
Settings: in vivo
readout: Vd/F (L/kg)
Write the answer as a number in L/kg, unit excluded.

**Query** For COc1ccc(-c2cc3cc(C(c4c[nH]c5ccccc45)c4c[nH]c5ccccc45)cc(C(C)(C)C)c3oc2=O)cc1OC , what is its reported Vd/F?
**Result** 684

====

Assay: Apparent oral clearance in Sprague-Dawley rat at 100 mg/kg administered as single dose by LC-MS/MS analysis
Type: ADME, organism-based
Details: in vivo
readout: CL/F (L/h/kg)
Write the answer as a number in L/h/kg, unit excluded.

**Query** For COc1ccc(-c2cc3cc(C(c4c[nH]c5ccccc45)c4c[nH]c5ccccc45)cc(C(C)(C)C)c3oc2=O)cc1OC , what is its reported CL/F?
**Result** 241

====

Molecular target: 3-hydroxy-3-methylglutaryl-coenzyme A reductase (Homo sapiens)
Sequence (whole entry): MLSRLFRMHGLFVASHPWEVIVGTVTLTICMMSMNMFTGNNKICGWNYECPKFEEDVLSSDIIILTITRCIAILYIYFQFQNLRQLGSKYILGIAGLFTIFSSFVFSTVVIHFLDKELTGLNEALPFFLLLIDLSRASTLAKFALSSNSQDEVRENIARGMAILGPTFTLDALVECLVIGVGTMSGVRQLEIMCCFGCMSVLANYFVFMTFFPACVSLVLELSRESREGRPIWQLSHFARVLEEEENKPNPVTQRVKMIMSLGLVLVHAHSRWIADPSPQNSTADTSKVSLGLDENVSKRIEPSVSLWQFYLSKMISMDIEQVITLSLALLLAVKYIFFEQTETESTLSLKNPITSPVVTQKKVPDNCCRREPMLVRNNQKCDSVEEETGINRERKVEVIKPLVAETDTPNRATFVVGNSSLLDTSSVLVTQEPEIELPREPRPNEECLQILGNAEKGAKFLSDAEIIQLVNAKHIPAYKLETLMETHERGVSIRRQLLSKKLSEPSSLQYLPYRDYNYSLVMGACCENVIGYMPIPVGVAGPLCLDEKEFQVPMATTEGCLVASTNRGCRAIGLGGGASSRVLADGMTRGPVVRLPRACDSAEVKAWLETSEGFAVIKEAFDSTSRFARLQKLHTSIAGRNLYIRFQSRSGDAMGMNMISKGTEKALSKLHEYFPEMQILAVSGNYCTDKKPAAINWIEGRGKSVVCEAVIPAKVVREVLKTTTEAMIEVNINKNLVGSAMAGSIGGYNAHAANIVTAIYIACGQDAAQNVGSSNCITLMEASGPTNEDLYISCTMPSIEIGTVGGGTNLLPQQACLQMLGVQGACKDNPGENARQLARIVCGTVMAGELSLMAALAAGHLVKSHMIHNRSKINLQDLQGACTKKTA
Experiment: Inhibition of human HMG-CoA reductase catalytic domain at 10 uM using HMG-CoA as substrate in presence of NADPH by colorimetric method relative to control
Recorded inhibition by entry
Write the answer as a number in %, unit excluded.

Here are 3 compounds together with their reported answers.
COc1ccc(-c2cc3cc(C(c4c[nH]c5ccc([N+](=O)[O-])cc45)c4c[nH]c5ccc([N+](=O)[O-])cc45)cc(C)c3oc2=O)cc1    55
COc1ccc(-c2cc3cc(C(c4c(C)[nH]c5ccccc45)c4c(C)[nH]c5ccccc45)cc(C(C)(C)C)c3oc2=O)cc1OC    15
COc1ccc(-c2cc3cc(C(c4c[nH]c5ccccc45)c4c[nH]c5ccccc45)cc(C)c3oc2=O)cc1OC    22

Now for the compound whose inhibition we want.
**Query** For COc1cc(-c2cc3cc(C(c4c(C)[nH]c5ccccc45)c4c(C)[nH]c5ccccc45)cc(C)c3oc2=O)cc(OC)c1OC , what is its reported inhibition?
**Result** 16
